Values from PubChem BioAssay AID2314

experiment: Cycloheximide Counterscreen for Small Molecule Inhibitors of Shiga Toxin; details: cell reporter, cycloheximide protein synthesis inhibition counterscreen; stronger effect = higher value; further: read at 38.3 µM for the half of the compounds with a filed dose; 0% is about no effect
Screen size: about 300,000 compounds; about 37,000 (12%) were called active. Many of the other results were omitted from the sample, so actives are more common in it than they were.
endpointName: max response (%)

[[record]]
compound = "Cc1ccc2nc(-c3ccccn3)cc(C(=O)Nc3ccc4c(c3)OCO4)c2c1"
endpointname = "max response"
unitssymbol = "%"
obsvalue = 20.8

[[record]]
compound = "CCC(C)(C)NC(=O)CN(C(=O)CCC(=O)Nc1nccs1)c1ccc2c(c1)OCO2"
endpointname = "max response"
unitssymbol = "%"
obsvalue = -3.66

[[record]]
compound = "COC(=O)c1nc(NC(=O)c2ccc(F)cc2)n[nH]1"
endpointname = "max response"
unitssymbol = "%"
obsvalue = -1.65

[[record]]
compound = "CC(NC(=O)Nc1cccc([N+](=O)[O-])c1)c1ccc2c(c1)OCO2 (centres undefined)"
endpointname = "max response"
unitssymbol = "%"
obsvalue = -0.734

[[record]]
compound = "O=C(Nc1ccc(Cl)cc1)Nc1nnc(/C=C/c2ccccc2)s1"
endpointname = "max response"
unitssymbol = "%"
obsvalue = 6.47

[[record]]
compound = "COc1ccc(-n2c(C)cc(C(=O)COC(=O)c3cc(OC)c(OC)cc3NC(=O)c3cccs3)c2C)cc1"
endpointname = "max response"
unitssymbol = "%"
obsvalue = -3.59

[[record]]
compound = "CC(NC(=O)COc1ccc(-c2ccccc2)cc1)C1CCCO1 (centres undefined)"
endpointname = "max response"
unitssymbol = "%"
obsvalue = 1.81

[[record]]
compound = "CCCCNC(=O)C1CCC(=O)N1CCc1ccccc1 (centres undefined)"
endpointname = "max response"
unitssymbol = "%"
obsvalue = -3.51

[[record]]
compound = "CC(=O)c1sc(NC(=O)c2cccc3ccccc23)nc1C"
endpointname = "max response"
unitssymbol = "%"
obsvalue = 35.9

[[record]]
compound = "COC(=O)c1ccccc1NC(=O)C1CCN(S(=O)(=O)c2cc(OC)ccc2OC)CC1"
endpointname = "max response"
unitssymbol = "%"
obsvalue = -2.41

[[record]]
compound = "COc1ccc(OCc2nnc3n2N=C(c2ccccc2)C(CC(=O)O)S3)cc1 (centres undefined)"
endpointname = "max response"
unitssymbol = "%"
obsvalue = -4.15

[[record]]
compound = "COc1ccc(/C=C2\\CCCC3C2=NN(C(=O)c2scnc2C)C3c2ccc(OC)cc2)cc1 (centres undefined)"
endpointname = "max response"
unitssymbol = "%"
obsvalue = 11.8

[[record]]
compound = "CC(C)(O)C#Cc1ccc(CN2CCC(CO)(CCc3ccccc3)CC2)cc1"
endpointname = "max response"
unitssymbol = "%"
obsvalue = -2.91

[[record]]
compound = "COc1ccc(Br)cc1C(=O)Nc1cccc(C)c1C"
endpointname = "max response"
unitssymbol = "%"
obsvalue = -3.3

[[record]]
compound = "CC(=O)O[C@H]1c2ccccc2-c2ccccc2[C@@H]1OC(C)=O"
endpointname = "max response"
unitssymbol = "%"
obsvalue = 0.95

[[record]]
compound = "COc1ccc(C2CC(c3cccs3)=NN2c2nc(C)c(C(C)=O)s2)cc1OC (centres undefined)"
endpointname = "max response"
unitssymbol = "%"
obsvalue = 14

[[record]]
compound = "CC(NS(=O)(=O)c1ccc(OCC(=O)N2CCCC2)cc1)c1ccccc1 (centres undefined)"
endpointname = "max response"
unitssymbol = "%"
obsvalue = -1.86

[[record]]
compound = "O=C(Nc1ccncc1)c1c(F)cccc1F"
endpointname = "max response"
unitssymbol = "%"
obsvalue = 14.2

[[record]]
compound = "COc1cc2ccccc2cc1C(=O)Nc1ccc(S(=O)(=O)Nc2cc(C)on2)cc1"
endpointname = "max response"
unitssymbol = "%"
obsvalue = -2.65

[[record]]
compound = "CC(C)C(C(=O)NCc1ccco1)N(CC1CCCO1)C(=O)CNS(=O)(=O)c1ccc(F)cc1 (centres undefined)"
endpointname = "max response"
unitssymbol = "%"
obsvalue = -6.69

[[record]]
compound = "C=CCN1C(=O)C(O)(CC(=O)c2ccc(Cl)cc2)c2ccccc21 (centres undefined)"
endpointname = "max response"
unitssymbol = "%"
obsvalue = -1.68

[[record]]
compound = "COc1cc(CNc2ncn[nH]2)ccc1OCc1ccccc1C"
endpointname = "max response"
unitssymbol = "%"
obsvalue = 36.9

[[record]]
compound = "CCCNC(=O)C(=O)Nc1cc2c3c(c1)CCC(=O)N3CCC2"
endpointname = "max response"
unitssymbol = "%"
obsvalue = -6.21

[[record]]
compound = "CCc1ccc(NC(=O)N[C@H](C(=O)O)C(C)CC)cc1 (some centres undefined)"
endpointname = "max response"
unitssymbol = "%"
obsvalue = 9.38

[[record]]
compound = "CC(C)NC(=O)CSc1ccccc1C(=O)NCc1ccc2c(c1)OCO2"
endpointname = "max response"
unitssymbol = "%"
obsvalue = 3.57

[[record]]
compound = "CCc1ccc(NC(=O)Nc2ccncc2)cc1"
endpointname = "max response"
unitssymbol = "%"
obsvalue = 28.8

[[record]]
compound = "CCc1nnc(NC(=O)CCN(c2ccc(C)cc2)S(=O)(=O)c2ccccc2)s1"
endpointname = "max response"
unitssymbol = "%"
obsvalue = -1.73

[[record]]
compound = "O=c1[nH]c(=S)[nH]c2[nH]c(=S)[nH]c12"
endpointname = "max response"
unitssymbol = "%"
obsvalue = -3.22

[[record]]
compound = "COc1ccc(CCNC(=O)C(=O)NCc2ccccc2C)cc1OC"
endpointname = "max response"
unitssymbol = "%"
obsvalue = -2.75

[[record]]
compound = "CCOc1cc(C(=S)N2CCOCC2)ccc1OS(=O)(=O)c1ccc(Br)cc1"
endpointname = "max response"
unitssymbol = "%"
obsvalue = -1.79

[[record]]
compound = "CSCCNCc1cn(-c2ccc(F)cc2F)nc1-c1ccccc1C"
endpointname = "max response"
unitssymbol = "%"
obsvalue = -0.8

[[record]]
compound = "CC(C)CC(=O)Nc1ccc(Cc2ccncc2)cc1"
endpointname = "max response"
unitssymbol = "%"
obsvalue = -2.52

[[record]]
compound = "COc1ccc(OC)c(NC(=O)c2sc3nc(C)cc(C)c3c2N)c1"
endpointname = "max response"
unitssymbol = "%"
obsvalue = 1.77

[[record]]
compound = "C/C(=N/NC(=O)c1ccncc1)c1ccc2c(c1)OCO2"
endpointname = "max response"
unitssymbol = "%"
obsvalue = 0.639

[[record]]
compound = "CNC(=O)c1sc(Nc2ccc(OCc3ccccc3)cc2)nc1C"
endpointname = "max response"
unitssymbol = "%"
obsvalue = 10.4

[[record]]
compound = "COc1ccccc1N(CC(=O)Nc1ccccc1C(=O)N1CCCC1)S(C)(=O)=O"
endpointname = "max response"
unitssymbol = "%"
obsvalue = -4.06

[[record]]
compound = "CC1CCCCN1C(=O)CCS(=O)(=O)Cc1ccccc1 (centres undefined)"
endpointname = "max response"
unitssymbol = "%"
obsvalue = -0.307

[[record]]
compound = "COc1ccc(N2C(=O)C3C(C2=O)C(C(=O)c2ccccc2)N2CCCC32)cc1 (centres undefined)"
endpointname = "max response"
unitssymbol = "%"
obsvalue = 2.35

[[record]]
compound = "CCOC(=O)c1ccccc1NS(=O)(=O)c1c(C)nc2sccn2c1=O"
endpointname = "max response"
unitssymbol = "%"
obsvalue = -3.59


* * *

test: Cycloheximide Counterscreen for Small Molecule Inhibitors of Shiga Toxin; details: cell reporter, cycloheximide protein synthesis inhibition counterscreen; stronger effect = higher value; further: read at 38.3 µM for the half of the compounds with a filed dose; 0% is about no effect
Out of some 300,000 compounds screened, about 37,000 (12%) were called active. The sample holds actives, similar compounds and a random draw of the others, so the mix is not that of the screen.
endpointName: max response (%)

[[record]]
compound = "Cc1ccc(F)cc1NC(=O)N1CCCN(c2ccc(C(F)(F)F)cn2)CC1"
obsvalue = -0.488

[[record]]
compound = "CC(CN1CCOCC1)c1ccccc1 (stereo not given)"
obsvalue = 2.67

[[record]]
compound = "CC(CN1CCOCC1)OC(=O)c1ccc(C(C)(C)C)cc1 (stereo not given)"
obsvalue = 16.4

[[record]]
compound = "S=C(NCCCc1cnc[nH]1)NCCCN(Cc1ccc(Cl)c(Cl)c1)c1ccc(Br)cn1"
obsvalue = -1.98

[[record]]
compound = "Cc1cc(-c2n[nH]c(=S)n2/N=C/C(Br)=C/c2ccccc2)n[nH]1"
obsvalue = 95.8

[[record]]
compound = "O=C(O)Cc1sc(-c2ccccc2)nc1-c1cccs1"
obsvalue = 16.4

[[record]]
compound = "CN(CC(=O)Nc1ccccc1C(F)(F)F)C(=O)Cc1ccccc1F"
obsvalue = -1.32

[[record]]
compound = "NC(=O)Cc1ccc2c(c1)[nH]c1ccccc12"
obsvalue = 4.3

[[record]]
compound = "CCOc1cc(N2CCOCC2)c(OCC)cc1NC(=O)c1ccc(C)s1"
obsvalue = -4.86

[[record]]
compound = "CC(CN1CCCCC1)c1ccccc1 (stereo not given)"
obsvalue = -3.13

[[record]]
compound = "Cc1ccc(C(CNC(=O)Nc2cccc(C)c2)N2CCN(C)CC2)cc1 (stereo not given)"
obsvalue = -4.7

[[record]]
compound = "CCC(=O)c1ccc(N2CCN(C(=O)c3cc([N+](=O)[O-])ccc3F)CC2)c(F)c1"
obsvalue = -0.539

[[record]]
compound = "COC(c1ccccc1)c1nnc(CCC(=O)N2CCN(CCOc3ccccc3)CC2)o1 (stereo not given)"
obsvalue = -3.13

[[record]]
compound = "CC(CN1CCCCC1)OC(=O)c1ccccc1Cl (stereo not given)"
obsvalue = 22.1

[[record]]
compound = "COc1cccc(CNC(=O)C2CC(=O)N(C3CCCCCCC3)C2)c1 (stereo not given)"
obsvalue = 24.6

